These data points were gathered from a melting point compilation (Tetko et al.).

Recorded melting point for the following compounds

Worked set:
CC1(C)NC(=O)N(CCBr)C1=O: 97 to 99 °C
CN1CCCc2cc(/C=C/C(=O)O)ccc21: 169 to 171 °C
Nc1ccc2oc(C(F)(F)F)nc2c1: 120 to 122 °C

// switching to the query compound
Lookup result for O=C(Nc1ccccc1)c1ccc(O)cc1 ; measured melting point: 195 to 197 °C

----------
property.label: melting point

Worked set:
CC(c1ccncc1)n1nccc1N (stereo not drawn): 279 to 281 °C
CC1CCC(NC(=O)OC(C)(C)C)(C(=O)O)CC1 (stereo not drawn): 151 to 153 °C
O=C(O)CCSCc1ccccn1: 74 to 76 °C
Oc1ccc(-c2nc3cc(Cl)ccc3s2)cc1: 263 to 265 °C
Nc1ccc(SCc2cccnc2)cc1: 125 to 127 °C
Cc1ccnn1-c1ccc(C(=O)O)cc1: 243 to 245 °C
O=C1NCCNc2ccccc21: 151 to 153 °C
Cn1cc(N2CCNCC2)cn1: 68 to 70 °C

// switching to the query compound
Lookup result for O=C(CO)c1ccc(Cl)cc1 ; measured melting point: 124 to 126 °C

----------
Recorded melting point for the following compounds

Worked set:
O=C(O)c1cc(S(=O)(=O)Nc2ccc(Br)cc2)ccc1Cl: 217 to 219 °C
CC(=O)c1ccc(C)c(S(N)(=O)=O)c1: 144 to 146 °C
COc1ccc(C(N)C(=O)O)cc1 (stereo unspecified): 232 to 234 °C
Sc1nc2ccccc2n1-c1ccccc1: 140 to 145 °C

Lookup result for COc1ccc(N)cc1S(=O)(=O)NC1CC1 ; measured melting point: 163 to 165 °C

Lookup result for NN1C(=O)NC(c2ccccc2)(c2ccccc2)C1=O ; measured melting point: 188 to 192 °C

Lookup result for Nc1ccc(Cl)cc1C(=O)NC1CC1 ; measured melting point: 147 to 149 °C

Lookup result for CNS(=O)(=O)Cc1ccccc1CN ; measured melting point: 130 to 132 °C

Lookup result for CCCN(C)S(N)(=O)=O ; measured melting point: 32 to 34 °C

Lookup result for CNS(=O)(=O)c1cc(Br)cnc1N ; measured melting point: 179 to 181 °C

Lookup result for CC1=CSC(=C(C#N)N=O)N1 ; measured melting point: 180 to 182 °C

Lookup result for CCOC(=O)c1ncoc1-c1ccco1 ; measured melting point: 93 to 95 °C

Lookup result for O=C(NCCO)c1cccc(S(=O)(=O)N2CCCCC2)c1 ; measured melting point: 65 to 68 °C

Lookup result for Cc1c(F)ccc2sc(N)nc12 ; measured melting point: 174 to 176 °C

Lookup result for N#Cc1cccc(CCl)c1 ; measured melting point: 67 to 70 °C

Lookup result for O=Cc1c(N2CCOCC2)nc2ccccn12 ; measured melting point: 164 to 166 °C

----------
Recorded melting point for the following compounds

Worked set:
CN1CN=C(S)NC1: 173 to 177 °C
O=C(O)c1c[nH]cc1-c1ccc([N+](=O)[O-])cc1: 209 to 211 °C

// switching to the query compound
Lookup result for NC1CCN(c2ccc(C(F)(F)F)cc2)C1 (stereo not drawn) ; measured melting point: 60 to 62 °C

----------
Recorded melting point for the following molecules

Lookup result for CCN1CCN(CC(=O)O)C(=O)C1=O ; measured melting point: 200 to 202 °C

Lookup result for O=C(C1OCCc2ccccc21)N1CCCC1 (stereo not drawn) ; measured melting point: 109 to 111 °C

Lookup result for CC(=O)c1cc(C(=O)O)ccc1O ; measured melting point: 239 to 241 °C

Lookup result for Clc1nc(CN2CCCCC2)nc2sc3c(c12)CCCC3 ; measured melting point: 51 to 53 °C

Lookup result for Cc1ccc(CC(=O)O)cn1 ; measured melting point: 159 to 161 °C

Lookup result for O=[N+]([O-])c1cc(Cl)c(S(=O)(=O)Cl)c(Cl)c1 ; measured melting point: 92 to 94 °C

Lookup result for COc1ccc2c(=O)[nH]cnc2c1 ; measured melting point: 251 to 253 °C

Lookup result for Nc1cc(Cl)ccc1-n1cnnn1 ; measured melting point: 130 to 132 °C

Lookup result for O=[N+]([O-])c1ccc2oc(CCl)nc2c1 ; measured melting point: 115 to 117 °C

Lookup result for CSc1ccncc1N ; measured melting point: 78 to 80 °C

Lookup result for Cc1ccc(S(=O)(=O)N(C)Cc2ccc(C(=O)NN)cc2)cc1 ; measured melting point: 66 to 68 °C

Lookup result for CC(N)c1cccc(S(N)(=O)=O)c1 (stereo not drawn) ; measured melting point: 27 to 29 °C

Lookup result for O=C(O)C1CCCCN1C(=O)c1ccccc1 (stereo not drawn) ; measured melting point: 128 to 130 °C

Lookup result for O=C(CCl)N1CCN(c2ncccn2)CC1 ; measured melting point: 100 to 102 °C

Lookup result for O=S1(=O)CCNc2ccccc21 ; measured melting point: 139 to 141 °C

Lookup result for O=C(O)CCOc1cccnc1 ; measured melting point: 174 to 176 °C

Lookup result for N#Cc1nnc[nH]1 ; measured melting point: 188 to 190 °C

Lookup result for COc1cccc(C(=O)O)c1OC(F)F ; measured melting point: 152 to 154 °C

Lookup result for CC1Nc2ccccc2NC1=O (stereo not drawn) ; measured melting point: 130 to 132 °C

Lookup result for O=C(O)c1ccc(Oc2ccc(F)cc2F)cc1 ; measured melting point: 172 to 174 °C

Lookup result for CCNS(=O)(=O)c1cccc(C(=O)O)c1 ; measured melting point: 199 to 201 °C

Lookup result for Cc1ccc(S(=O)(=O)NC2CCCCC2)cc1C(=O)O ; measured melting point: 217 to 219 °C

Lookup result for CC(C)NC(=O)c1ccc(C(=O)O)cc1 ; measured melting point: 179 to 181 °C
